system: Streptococcus pyogenes C203; assay: broth micro-dilution MIC; type: cell-based
measurement_label: MIC

Sample records with MIC:
compound: CN[C@H](CC(C)C)C(=O)N[C@H]1C(=O)N[C@@H](CC(N)=O)C(=O)N[C@H]2C(=O)N[C@H]3C(=O)N[C@H](C(=O)N[C@H](C(=O)O)c4cc(O)cc(O)c4-c4cc3ccc4O)[C@H](O[C@H]3C[C@](C)(N)[C@@H](O)[C@H](C)O3)c3ccc(c(Cl)c3)Oc3cc2cc(c3O[C@@H]2O[C@H](CO)[C@@H](O)[C@H](O)[C@H]2O[C@H]2C[C@](C)(NCc3ccc(Oc4ccc(C(C)(C)C)cc4)cc3)[C@@H](O)[C@H](C)O2)Oc2ccc(cc2Cl)[C@H]1O
test_value: ≤ 0.06 µg/mL

compound: CNC(CC(C)C)C(=O)NC1C(=O)NC(CC(N)=O)C(=O)NC2C(=O)NC3C(=O)NC(C(=O)NC(C(=O)O)c4cc(O)cc(O)c4-c4cc3ccc4O)C(OC3CC(C)(N)C(O)C(C)O3)c3ccc(c(Cl)c3)Oc3cc2cc(c3OC2OC(CO)C(O)C(O)C2OC2CC(C)(NCc3ccc(S(=O)(=O)c4ccc(Cl)cc4)cc3)C(O)C(C)O2)Oc2ccc(cc2Cl)C1O (stereo not drawn)
test_value: ≤ 0.06 µg/mL

Turning now to a further compound:
Ask | Consider the compound shown here: CNC(CC(C)C)C(=O)NC1C(=O)NC(CC(N)=O)C(=O)NC2C(=O)NC3C(=O)NC(C(=O)NC(C(=O)O)c4cc(O)cc(O)c4-c4cc3ccc4O)C(OC3CC(C)(N)C(O)C(C)O3)c3ccc(c(Cl)c3)Oc3cc2cc(c3OC2OC(CO)C(O)C(O)C2OC2CC(C)(NCC3CCC(C4CCCCC4)CC3)C(O)C(C)O2)Oc2ccc(cc2Cl)C1O (stereo not drawn) What is its recorded MIC?
Reply | ≤ 0.06 µg/mL
